# assayed-target: EPHA1 (human) (UniProt P21709)
# Sequence (P21709 whole entry, looked up): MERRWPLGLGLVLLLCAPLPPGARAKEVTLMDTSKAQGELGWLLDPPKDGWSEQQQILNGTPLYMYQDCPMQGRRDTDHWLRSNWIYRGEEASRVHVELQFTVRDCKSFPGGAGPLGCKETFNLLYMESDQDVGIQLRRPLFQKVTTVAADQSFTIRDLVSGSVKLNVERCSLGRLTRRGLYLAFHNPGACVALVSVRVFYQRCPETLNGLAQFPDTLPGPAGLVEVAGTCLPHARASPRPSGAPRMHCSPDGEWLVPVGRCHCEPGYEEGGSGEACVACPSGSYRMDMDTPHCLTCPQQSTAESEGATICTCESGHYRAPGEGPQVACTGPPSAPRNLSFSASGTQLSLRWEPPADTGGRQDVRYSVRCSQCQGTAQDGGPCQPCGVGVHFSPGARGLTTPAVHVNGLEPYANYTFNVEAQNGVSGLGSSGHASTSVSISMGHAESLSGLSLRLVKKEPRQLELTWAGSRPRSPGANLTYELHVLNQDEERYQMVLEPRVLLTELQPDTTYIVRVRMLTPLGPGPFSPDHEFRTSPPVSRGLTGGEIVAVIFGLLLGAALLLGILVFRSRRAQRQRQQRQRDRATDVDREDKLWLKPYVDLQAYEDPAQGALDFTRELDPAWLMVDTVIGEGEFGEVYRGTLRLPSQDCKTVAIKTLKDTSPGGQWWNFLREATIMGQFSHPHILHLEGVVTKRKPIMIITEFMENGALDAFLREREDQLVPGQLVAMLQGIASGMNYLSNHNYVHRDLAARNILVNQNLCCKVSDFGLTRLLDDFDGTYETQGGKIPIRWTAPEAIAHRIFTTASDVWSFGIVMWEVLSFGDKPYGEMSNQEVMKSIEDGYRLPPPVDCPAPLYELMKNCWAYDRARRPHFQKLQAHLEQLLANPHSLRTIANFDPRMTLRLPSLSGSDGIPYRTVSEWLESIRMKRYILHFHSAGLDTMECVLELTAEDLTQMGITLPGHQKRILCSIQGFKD
# assay-overview: radiometric filter-binding kinase assay, Kinase HotSpot
# measurement-setup: compound 0.5 µM; ATP 10 µM
The threshold is 90%. Values of residual activity beneath it are tagged true (1); values meeting or exceeding it are tagged false (0).

# example entries with known answers
# input-smiles, label
data = [
    ("c1ccc(-c2cnc(Nc3ccc(OCCN4CCCC4)cc3)s2)cc1", "true (1)"),
    ("COc1cc2ncnc(Nc3ccc(O)c(Br)c3)c2cc1OC", "true (1)"),
    ("CCOc1cc2ncnc(Nc3cccc(Br)c3)c2cc1OCC", "true (1)"),
    ("Cc1cc(Nc2nc(-c3ccccc3)nc3ccccc23)n[nH]1", "true (1)"),
    ("O=c1cc(N2CCOCC2)oc2c(-c3ccccc3)cccc12", "false (0)"),
    ("O=c1[nH]c2ccccc2n1C1CCN(Cc2ccc(-c3nc4cc5[nH]cnc5cc4nc3-c3ccccc3)cc2)CC1", "true (1)"),
    ("COc1cc2c(N3CCN(C(=O)Nc4ccc(OC(C)C)cc4)CC3)ncnc2cc1OCCCN1CCCCC1", "false (0)"),
    ("N#C/C(=C1/Nc2ccccc2S1)c1ccnc(NCCc2cccnc2)n1", "false (0)"),
]

Say whether its residual activity is strictly beneath 90%. Entry: O=C(O)c1ccc2c3c1cccc3c(=O)n1c3ccccc3nc21
false (0)

Say whether its residual activity is strictly beneath 90%. Entry: COc1cc2c(Nc3ccc(Br)cc3F)ncnc2cc1OCC1CCN(C)CC1
true (1)

Say whether its residual activity is strictly beneath 90%. Entry: O=c1c2ccccc2[nH]c(=S)n1CCN1CCC(=C(c2ccc(F)cc2)c2ccc(F)cc2)CC1
false (0)

Say whether its residual activity is strictly beneath 90%. Entry: CCCCc1c(-c2ccc(O)cc2)[nH]c2nccnc12
true (1)

Say whether its residual activity is strictly beneath 90%. Entry: COc1cccc(-c2cc(=O)c3ccccc3o2)c1N
false (0)

Say whether its residual activity is strictly beneath 90%. Entry: COc1cc2c(cc1OC)-c1[nH]nc(Nc3cccc(F)c3)c1C2
false (0)

Say whether its residual activity is strictly beneath 90%. Entry: Cn1cc(/C=C2\C(=O)Nc3ccc(S(N)(=O)=O)cc32)c2ccccc21
false (0)

Say whether its residual activity is strictly beneath 90%. Entry: O=C1NC(=O)c2cc(Nc3ccc(F)cc3)c(Nc3ccc(F)cc3)cc21
false (0)

Say whether its residual activity is strictly beneath 90%. Entry: O=C1NC(=O)c2c1c1c3ccccc3[nH]c1c1[nH]c3cc(Br)ccc3c21
false (0)

Say whether its residual activity is strictly beneath 90%. Entry: CCc1nc(-c2ccc(OC)cc2)[nH]c1-c1ccncc1
false (0)

Say whether its residual activity is strictly beneath 90%. Entry: O=c1c(-c2ccc(F)cc2)c(-c2ccncc2)[nH]n1-c1ccc(Cl)cc1
false (0)

====

# assayed-target: GRK6 (human)
# assay-overview: radiometric filter-binding kinase assay, Kinase HotSpot
# measurement-setup: compound 0.5 µM; ATP 10 µM
quantity: residual activity (%)
Please reply with the bare figure in % and do not write the unit itself.

# input-smiles, assayed-target, readout-units, value-measured
data = [
    ("COc1cc2ncnc(Nc3ccc(O)c(Br)c3)c2cc1OC", "GRK6 (human)", "%", 104),
    ("N#CCCc1ccc2c(c1)-c1[nH]c3ccc([N+](=O)[O-])cc3c1CC(=O)N2", "GRK6 (human)", "%", 91.5),
    ("COc1cc2c(Nc3ccc(Br)cc3F)ncnc2cc1OCC1CCN(C)CC1", "GRK6 (human)", "%", 104),
    ("N/C(=N\\N=C/c1ccc(-c2cccc([N+](=O)[O-])c2)o1)N[N+](=O)[O-]", "GRK6 (human)", "%", 98.3),
    ("Cn1cc(/C=C2\\C(=O)Nc3ccc(S(N)(=O)=O)cc32)c2ccccc21", "GRK6 (human)", "%", 47.2),
    ("N#Cc1c(NC(=O)c2cccc3ccccc23)sc2c1CCCC2", "GRK6 (human)", "%", 108),
    ("O=S(=O)(NCCNC/C=C/c1ccc(Br)cc1)c1cccc2cnccc12", "GRK6 (human)", "%", 93.5),
    ("COc1cc2c(cc1OC)-c1[nH]nc(Nc3cccc(F)c3)c1C2", "GRK6 (human)", "%", 89.4),
    ("FC(F)(F)c1ccc(/C=C/c2nc(COc3ccc(CCCCn4ccnn4)cc3)co2)cc1", "GRK6 (human)", "%", 104),
]

Quick one: residual activity for O=c1c2ccccc2[nH]c(=S)n1CCN1CCC(=C(c2ccc(F)cc2)c2ccc(F)cc2)CC1 ?
111

====

# assayed-target: MAP3K5 (human)
# assay-overview: radiometric filter-binding kinase assay, Kinase HotSpot
# measurement-setup: compound 0.5 µM; ATP 10 µM
quantity: residual activity (%)
Please reply with the bare figure in % and do not write the unit itself.

Observe how each entry below is paired with its result.
# input-smiles, value-measured
data = [
    ("Cn1cc(/C=C2\\C(=O)Nc3ccc(S(N)(=O)=O)cc32)c2ccccc21", 53.2),
    ("FC(F)(F)c1ccc(/C=C/c2nc(COc3ccc(CCCCn4ccnn4)cc3)co2)cc1", 97.2),
    ("COc1cc2c(N3CCN(C(=O)Nc4ccc(OC(C)C)cc4)CC3)ncnc2cc1OCCCN1CCCCC1", 96.6),
    ("O=c1c(-c2ccc(F)cc2)c(-c2ccncc2)[nH]n1-c1ccc(Cl)cc1", 115),
    ("CCOc1cc2ncnc(Nc3cccc(Br)c3)c2cc1OCC", 116),
    ("O=C1NC(=O)c2cc(Nc3ccc(F)cc3)c(Nc3ccc(F)cc3)cc21", 96.6),
    ("O=c1[nH]c2ccccc2n1C1CCN(Cc2ccc(-c3nc4cc5[nH]cnc5cc4nc3-c3ccccc3)cc2)CC1", 93.8),
    ("N#C/C(=C1/Nc2ccccc2S1)c1ccnc(NCCc2cccnc2)n1", 102),
    ("COc1cc2c(cc1OC)-c1[nH]nc(Nc3cccc(F)c3)c1C2", 99.9),
    ("O=C(c1ccccc1)c1ccc(N2CCOCC2)cc1O", 97.8),
]

Quick one: residual activity for c1ccc(-c2cnc(Nc3ccc(OCCN4CCCC4)cc3)s2)cc1 ?
91.1

Quick one: residual activity for COc1cc2c(Nc3ccc(Br)cc3F)ncnc2cc1OCC1CCN(C)CC1 ?
102

====

Listing of recorded residual activity by entry.
# assayed-target: PAK2 (human)
# assay-overview: radiometric filter-binding kinase assay, Kinase HotSpot
# measurement-setup: compound 0.5 µM; ATP 10 µM
Please reply with the bare figure in % and do not write the unit itself.

Quick one: residual activity for O=c1[nH]c2ccccc2n1C1CCN(Cc2ccc(-c3nc4cc5[nH]cnc5cc4nc3-c3ccccc3)cc2)CC1 ?
99.2

Quick one: residual activity for CCCCc1c(-c2ccc(O)cc2)[nH]c2nccnc12 ?
84.5

Quick one: residual activity for O=C(c1ccccc1)c1ccc(N2CCOCC2)cc1O ?
103

Quick one: residual activity for Cc1cc(Nc2nc(-c3ccccc3)nc3ccccc23)n[nH]1 ?
91.8

Quick one: residual activity for Cn1cc(/C=C2\C(=O)Nc3ccc(S(N)(=O)=O)cc32)c2ccccc21 ?
79.2

Quick one: residual activity for O=c1c(-c2ccc(F)cc2)c(-c2ccncc2)[nH]n1-c1ccc(Cl)cc1 ?
102

====

# assayed-target: UniProt:P37173
# Sequence (P37173 whole entry, looked up): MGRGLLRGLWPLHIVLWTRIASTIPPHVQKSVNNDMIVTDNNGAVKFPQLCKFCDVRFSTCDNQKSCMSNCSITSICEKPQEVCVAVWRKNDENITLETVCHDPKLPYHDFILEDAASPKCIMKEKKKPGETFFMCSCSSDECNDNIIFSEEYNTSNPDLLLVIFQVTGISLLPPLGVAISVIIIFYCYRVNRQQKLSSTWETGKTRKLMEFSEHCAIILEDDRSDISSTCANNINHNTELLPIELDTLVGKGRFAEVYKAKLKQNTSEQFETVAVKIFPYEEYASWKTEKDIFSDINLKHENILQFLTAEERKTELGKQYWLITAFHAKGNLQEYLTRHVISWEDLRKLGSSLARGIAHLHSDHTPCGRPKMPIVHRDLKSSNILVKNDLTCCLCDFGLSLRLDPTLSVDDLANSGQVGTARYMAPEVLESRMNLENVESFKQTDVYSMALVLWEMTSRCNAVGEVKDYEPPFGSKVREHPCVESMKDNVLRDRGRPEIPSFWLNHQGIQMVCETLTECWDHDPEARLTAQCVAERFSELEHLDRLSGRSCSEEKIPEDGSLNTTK
# assay-overview: radiometric filter-binding kinase assay, Kinase HotSpot
# measurement-setup: compound 0.5 µM; ATP 10 µM
Listing of recorded residual activity by entry.
Please reply with the bare figure in % and do not write the unit itself.

Observe how each entry below is paired with its result.
# input-smiles, residual activity [%]
measured = [
    ("COc1cc2c(N3CCN(C(=O)Nc4ccc(OC(C)C)cc4)CC3)ncnc2cc1OCCCN1CCCCC1", 102),
    ("O=c1cc(N2CCOCC2)oc2c(-c3ccccc3)cccc12", 142),
]

Form entry - test system: UniProt:P37173; read-out: residual activity; molecule: Cc1cc(Nc2nc(-c3ccccc3)nc3ccccc23)n[nH]1
116

====

Listing of recorded residual activity by entry.
# assayed-target: GSK3A (human) (UniProt P49840)
# Sequence (P49840 whole entry, looked up): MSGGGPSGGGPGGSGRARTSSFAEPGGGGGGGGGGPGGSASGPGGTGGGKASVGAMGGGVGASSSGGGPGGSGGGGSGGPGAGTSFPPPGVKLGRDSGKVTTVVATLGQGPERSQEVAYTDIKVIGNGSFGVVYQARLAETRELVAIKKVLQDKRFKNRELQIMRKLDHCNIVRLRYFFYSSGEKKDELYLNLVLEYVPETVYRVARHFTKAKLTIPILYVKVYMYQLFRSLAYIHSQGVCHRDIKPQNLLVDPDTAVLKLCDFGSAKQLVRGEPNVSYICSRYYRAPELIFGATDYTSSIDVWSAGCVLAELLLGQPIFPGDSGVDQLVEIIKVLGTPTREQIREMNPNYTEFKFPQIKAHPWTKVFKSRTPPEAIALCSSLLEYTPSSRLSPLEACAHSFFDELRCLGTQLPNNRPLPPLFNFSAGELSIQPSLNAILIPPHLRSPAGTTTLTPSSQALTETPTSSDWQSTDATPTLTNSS
# assay-overview: radiometric filter-binding kinase assay, Kinase HotSpot
# measurement-setup: compound 0.5 µM; ATP 10 µM
Please reply with the bare figure in % and do not write the unit itself.

Quick one: residual activity for c1ccc(-c2cnc(Nc3ccc(OCCN4CCCC4)cc3)s2)cc1 ?
99.2

Quick one: residual activity for O=C(c1ccccc1)c1ccc(N2CCOCC2)cc1O ?
102

Quick one: residual activity for Cc1cc(Nc2nc(-c3ccccc3)nc3ccccc23)n[nH]1 ?
11.3

Quick one: residual activity for CCOc1cc2ncnc(Nc3cccc(Br)c3)c2cc1OCC ?
110

Quick one: residual activity for COc1cccc(-c2cc(=O)c3ccccc3o2)c1N ?
97

Quick one: residual activity for Cn1cc(/C=C2\C(=O)Nc3ccc(S(N)(=O)=O)cc32)c2ccccc21 ?
100

Quick one: residual activity for O=S(=O)(NCCNC/C=C/c1ccc(Br)cc1)c1cccc2cnccc12 ?
94.3

Quick one: residual activity for COc1cc2c(cc1OC)-c1[nH]nc(Nc3cccc(F)c3)c1C2 ?
101

Quick one: residual activity for O=c1cc(N2CCOCC2)oc2c(-c3ccccc3)cccc12 ?
93.5

Quick one: residual activity for FC(F)(F)c1ccc(/C=C/c2nc(COc3ccc(CCCCn4ccnn4)cc3)co2)cc1 ?
102

Quick one: residual activity for COc1cc2c(N3CCN(C(=O)Nc4ccc(OC(C)C)cc4)CC3)ncnc2cc1OCCCN1CCCCC1 ?
105

Each recorded value in this set is attributed to the kinase profiling compilation of Christmann-Franck et al. (2016).
